Biological target: human thyroid receptor beta ligand-binding domain (LBD) (Homo sapiens, UniProt P10828)
Construct: purchased Invitrogen
Sequence (P10828 217-461 limits assumed): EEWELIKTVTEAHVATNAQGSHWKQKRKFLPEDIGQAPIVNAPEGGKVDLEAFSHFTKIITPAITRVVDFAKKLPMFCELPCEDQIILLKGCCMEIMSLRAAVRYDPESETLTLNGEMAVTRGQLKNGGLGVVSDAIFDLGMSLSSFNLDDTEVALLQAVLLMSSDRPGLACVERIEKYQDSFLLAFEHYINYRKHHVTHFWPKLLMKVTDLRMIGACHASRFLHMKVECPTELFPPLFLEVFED
Experiment: TR-FRET thyroid receptor beta coactivator assay (THR biochemical assay, Assay 1)
Conditions: Table 5; Assay 1; THRβ; read-out: Activity category Assay 1 THRβ (Emax)
# Emax per entry

Consider the following illustrative entries.
Quick one: Emax of N#C[C@@H]1CC[C@H]1c1cc(Oc2c(Cl)cc(-n3nc(N)c(=O)[nH]c3=O)cc2Cl)n[nH]c1=O (relative stereo) ?
< 50%

Quick one: Emax of Nc1nn(-c2cc(Cl)c(Oc3ccc4c(c3)C3(CC3)C(=O)N4)c(Cl)c2)c(=O)[nH]c1=O ?
50 to 75%

Quick one: Emax of Nc1nn(-c2cc(Cl)c(Oc3n[nH]c(=O)cc3-c3ccc4ccnnc4c3)c(Cl)c2)c(=O)[nH]c1=O ?
< 50%

We next turn to a different compound, shown below.
Quick one: Emax of CC(C)c1c[nH]c2nnc(Oc3c(Cl)cc(-n4nc(C#N)c(=O)[nH]c4=O)cc3Cl)cc12 ?
< 50%
